Biological target: Maltase-glucoamylase (Homo sapiens, UniProt O43451)
Sequence (O43451 whole entry): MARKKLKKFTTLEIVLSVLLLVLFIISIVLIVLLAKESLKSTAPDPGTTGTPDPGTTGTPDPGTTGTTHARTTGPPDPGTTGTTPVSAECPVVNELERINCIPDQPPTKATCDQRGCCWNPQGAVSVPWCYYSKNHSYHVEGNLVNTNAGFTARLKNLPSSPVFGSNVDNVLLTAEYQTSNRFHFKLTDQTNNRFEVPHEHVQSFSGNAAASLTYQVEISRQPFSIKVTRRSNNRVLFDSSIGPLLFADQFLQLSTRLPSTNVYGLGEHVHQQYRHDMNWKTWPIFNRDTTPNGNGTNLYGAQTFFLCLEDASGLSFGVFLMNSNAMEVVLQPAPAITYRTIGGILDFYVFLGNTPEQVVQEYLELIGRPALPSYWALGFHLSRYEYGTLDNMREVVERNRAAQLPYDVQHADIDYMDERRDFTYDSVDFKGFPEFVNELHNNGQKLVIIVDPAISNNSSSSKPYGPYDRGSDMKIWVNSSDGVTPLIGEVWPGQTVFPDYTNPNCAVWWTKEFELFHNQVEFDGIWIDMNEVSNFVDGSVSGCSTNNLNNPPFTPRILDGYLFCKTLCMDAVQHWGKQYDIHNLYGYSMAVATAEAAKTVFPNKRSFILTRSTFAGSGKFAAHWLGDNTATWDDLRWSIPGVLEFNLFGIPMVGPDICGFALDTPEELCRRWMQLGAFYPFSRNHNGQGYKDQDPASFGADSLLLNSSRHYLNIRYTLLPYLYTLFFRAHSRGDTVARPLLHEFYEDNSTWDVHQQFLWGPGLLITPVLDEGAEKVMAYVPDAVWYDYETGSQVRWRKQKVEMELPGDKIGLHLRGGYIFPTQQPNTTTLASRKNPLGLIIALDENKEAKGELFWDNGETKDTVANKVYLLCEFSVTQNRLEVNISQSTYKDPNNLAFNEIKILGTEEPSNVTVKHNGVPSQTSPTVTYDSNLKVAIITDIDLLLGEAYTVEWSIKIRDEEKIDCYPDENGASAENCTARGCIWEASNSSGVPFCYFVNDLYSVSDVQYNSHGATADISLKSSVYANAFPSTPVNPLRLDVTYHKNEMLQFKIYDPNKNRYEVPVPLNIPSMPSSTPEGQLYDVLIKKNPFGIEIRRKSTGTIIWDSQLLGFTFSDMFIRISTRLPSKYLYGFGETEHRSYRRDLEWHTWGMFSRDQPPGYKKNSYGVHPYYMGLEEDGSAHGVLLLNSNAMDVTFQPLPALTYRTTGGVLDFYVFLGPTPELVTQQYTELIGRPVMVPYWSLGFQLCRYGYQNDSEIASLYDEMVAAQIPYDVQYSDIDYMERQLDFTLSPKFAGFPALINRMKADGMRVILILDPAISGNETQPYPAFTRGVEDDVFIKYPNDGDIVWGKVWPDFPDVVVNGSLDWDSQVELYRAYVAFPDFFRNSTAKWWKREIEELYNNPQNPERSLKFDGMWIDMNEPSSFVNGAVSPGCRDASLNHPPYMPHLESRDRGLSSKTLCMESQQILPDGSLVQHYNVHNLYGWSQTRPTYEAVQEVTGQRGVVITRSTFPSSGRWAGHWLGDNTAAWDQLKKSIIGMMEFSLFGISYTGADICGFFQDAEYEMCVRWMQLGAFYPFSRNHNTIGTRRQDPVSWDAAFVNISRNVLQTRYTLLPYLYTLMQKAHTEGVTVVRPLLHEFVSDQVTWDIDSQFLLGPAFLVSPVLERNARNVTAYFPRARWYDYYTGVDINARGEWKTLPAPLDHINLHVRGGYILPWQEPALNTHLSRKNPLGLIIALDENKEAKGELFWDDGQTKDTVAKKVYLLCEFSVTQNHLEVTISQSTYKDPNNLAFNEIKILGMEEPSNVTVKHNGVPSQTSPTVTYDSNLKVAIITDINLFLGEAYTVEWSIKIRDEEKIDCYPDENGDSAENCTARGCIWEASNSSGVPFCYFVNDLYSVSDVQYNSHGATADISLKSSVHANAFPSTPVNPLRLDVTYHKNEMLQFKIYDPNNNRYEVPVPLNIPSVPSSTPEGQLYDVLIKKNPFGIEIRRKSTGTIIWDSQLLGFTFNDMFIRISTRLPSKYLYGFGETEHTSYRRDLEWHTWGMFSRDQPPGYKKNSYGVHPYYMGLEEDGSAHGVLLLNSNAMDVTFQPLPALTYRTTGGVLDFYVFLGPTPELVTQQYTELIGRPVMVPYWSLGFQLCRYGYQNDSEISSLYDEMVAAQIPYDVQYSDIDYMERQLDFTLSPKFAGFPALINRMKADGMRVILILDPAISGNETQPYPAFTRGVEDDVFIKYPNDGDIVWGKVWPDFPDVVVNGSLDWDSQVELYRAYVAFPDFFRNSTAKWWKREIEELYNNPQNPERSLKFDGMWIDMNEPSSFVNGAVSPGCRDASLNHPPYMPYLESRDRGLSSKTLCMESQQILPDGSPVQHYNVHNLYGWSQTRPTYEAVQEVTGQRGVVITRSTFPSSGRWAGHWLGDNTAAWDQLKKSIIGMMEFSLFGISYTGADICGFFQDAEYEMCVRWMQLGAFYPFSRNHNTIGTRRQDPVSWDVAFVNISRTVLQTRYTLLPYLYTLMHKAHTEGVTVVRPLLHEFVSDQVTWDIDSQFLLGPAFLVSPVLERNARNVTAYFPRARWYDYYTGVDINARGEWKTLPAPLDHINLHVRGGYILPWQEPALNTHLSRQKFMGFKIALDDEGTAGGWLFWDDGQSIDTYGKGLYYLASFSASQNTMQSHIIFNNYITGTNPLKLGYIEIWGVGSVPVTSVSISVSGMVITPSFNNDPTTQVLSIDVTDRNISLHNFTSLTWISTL
Assay: Inhibition of alpha-Glucosidase (unknown origin) using pNPG as substrate incubated for 20 mins by micro plate reader analysis
ASSAY_METRIC: pIC50
Give bare numbers, as −log10 of the molar value.

Prompt: What value of measured pIC50 is listed for COc1cc2c(c(O)c1CO)C(=O)OC[C@@H]2O ?
Response: 2.85

* * *

Test: Inhibition of influenza A virus Neuraminidase using 2-(4-methylumbelliferyl)-a-D-acetylneuraminic acid as substrate incubated for 30 mins by fluorescence based analysis
ASSAY_METRIC: IC50 (nM)
Give bare numbers, in nM.

Prompt: Report IC50 for COC(=O)[C@@]1(C(=O)C(C)=O)C(C)=C(C)C=C2[C@]3(C=O)CC[C@H](OC(C)=O)C(C)(C)[C@H]3CC[C@@]21C please.
Response: 8.1
